tested on: CHO; experiment: Cytotoxicity against R2 mutant cells derived from CHO cells with reduced expression of RFC; type: functional, cell-based; conditions: Cricetulus griseus
OBSERVED_PROPERTY: IC50

Note down IC50 recorded for CN(Cc1cnc2nc(N)nc(N)c2n1)c1ccc(C(=O)NC(CCP(=O)(O)CC(CCC(=O)OCOC(=O)C(C)(C)C)C(=O)OCOC(=O)C(C)(C)C)C(=O)OCOC(=O)C(C)(C)C)cc1 (centres undefined)
0.35 µM

Assign IC50 to the following record: COP(=O)(CCC(NC(=O)c1ccc(N(C)Cc2cnc3nc(N)nc(N)c3n2)cc1)C(=O)OCOC(=O)C(C)(C)C)CC(CCC(=O)OCOC(=O)C(C)(C)C)C(=O)OCOC(=O)C(C)(C)C (centres undefined)
> 1 µM

Read the entry CN(Cc1cnc2nc(N)nc(N)c2n1)c1ccc(C(=O)NC(CCP(=O)(O)CC(CCC(=O)O)C(=O)O)C(=O)O)cc1 (centres undefined) and write its reported IC50.
> 1 µM

# return recorded IC50 for entry COC(=O)CCC(CP(=O)(O)CCC(NC(=O)c1ccc(N(C)Cc2cnc3nc(N)nc(N)c3n2)cc1)C(=O)OC)C(=O)OC (centres undefined)
> 1 µM

* * *

test: Half life of hydrolysis rate in phosphate buffer at pH 8.0; format: ADME
What half-life was measured for each of the following?
# unit: h | format: bare number

Report measured half-life; entry is COP(=O)(CCC(NC(=O)c1ccc(N(C)Cc2cnc3nc(N)nc(N)c3n2)cc1)C(=O)OCOC(=O)C(C)(C)C)CC(CCC(=O)OCOC(=O)C(C)(C)C)C(=O)OCOC(=O)C(C)(C)C (stereo not drawn)
3

Give recorded half-life. CN(Cc1cnc2nc(N)nc(N)c2n1)c1ccc(C(=O)NC(CCP(=O)(O)CC(CCC(=O)OCOC(=O)C(C)(C)C)C(=O)OCOC(=O)C(C)(C)C)C(=O)OCOC(=O)C(C)(C)C)cc1 (stereo not drawn)
8
